# protein stability index values compiled below
B1: TSN (parent)
chain: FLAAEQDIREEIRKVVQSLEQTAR

- Variants of: B1
- Protocol text: protein stability index of a GFP-peptide fusion (GPS, HEK-293T) (PSI 1-6); higher = more stable;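 note: lentivirally expressed fusions sorted by FACS into six bins by GFP to DsRed ratio, PSI derived from sequencing read proportions per bin multiplied by bin number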
- Experimental parameters: c terminus: a fixed tail appended

Variant notation: E11H
protein stability index: 2.58

Variant notation: V15K
protein stability index: 3.37

Variant notation: T22G
protein stability index: 1.24

Variant notation: V16G
protein stability index: 3.36

Variant notation: D7P
protein stability index: 2.22

Variant notation: E20L
protein stability index: 2.13

Variant notation: S18F
protein stability index: 1.39

Variant notation: A23Q
protein stability index: 1.96

Variant notation: E20R
protein stability index: 2.44

Variant notation: Q6A
protein stability index: 2.01

Variant notation: F1I
protein stability index: 2.51
